Give composite z-score for every item shown.
# target entity: Carbonic anhydrase 2 (Homo sapiens) (UniProt P00918)
# test name: CAII small-molecule binders, profiling panel, biochemical, small-molecule microarray, Alexa647-labelled CAII (AID 1122)
# measurement conditions: CAII-A647 binding fluorescence, higher = more signal

Study these solved cases before continuing.
[[record]]
compound_smiles = "COC(=O)CC=C[C@@H](C)[C@@H](C=NOC[C@@H](O)COCc1ccco1)OC"
target_entity = "Carbonic anhydrase 2 (Homo sapiens) (UniProt P00918)"
observation_type = "composite z-score"
experimental_result = -0.134

[[record]]
compound_smiles = "COc1ccc(OC[C@H]2CN3[C@@H](CC[C@@H](C)[C@@H]3c3ccc(Br)cc3)C(=O)O2)cc1"
target_entity = "Carbonic anhydrase 2 (Homo sapiens) (UniProt P00918)"
observation_type = "composite z-score"
experimental_result = -0.657

[[record]]
compound_smiles = "CCN1C(=O)[C@H]2[C@H]3[C@H](O)[C@H](O)CC(=NOCC(C)C)[C@H]3CC[C@H]2C1=O"
target_entity = "Carbonic anhydrase 2 (Homo sapiens) (UniProt P00918)"
observation_type = "composite z-score"
experimental_result = -0.15


Turning now to a further compound:
Task: Give the reported value of composite z-score for this record: COc1ccc(COC(=O)NN=C2C[C@@H](O)[C@@H](O)[C@@H]3[C@@H]4C(=O)N(Cc5ccccc5)C(=O)[C@@H]4CC[C@@H]23)cc1
Result: -0.359
